experiment: Distribution after oral administration (HPLC); format: in vivo, rat; conditions: rat; kidney, oral 50 mg/kg, 6 hours; read-out: Mean tissutal concentration
measured metric: concentration at 6 h (ng/g)
Give just the numeric value; ng/g need not be written.

Asked: Tell me the measured concentration at 6 h of COC1=C(OC)C(=O)C(CC=C(C)CCC=C(C)CCC=C(C)CCC=C(C)CCC=C(C)CCC=C(C)CCC=C(C)CCC=C(C)CCC=C(C)CCC=C(C)C)=C(C)C1=O [Coenzyme Q10] , please.
Given back: 15600

* * *

test: Distribution after parenteral (intramuscular) administration (HPLC); type: in vivo, rat; details: rat, im; kidney, intramuscular 20 mg/kg, 6 hours; read-out: Mean tissutal concentration
measured metric: concentration at 6 h (ng/g)
Kindly answer with a numeric value in ng/g, unit omitted.

Asked: Looking for the measured concentration at 6 h of COC1=C(OC)C(=O)C(CC=C(C)CCC=C(C)CCC=C(C)CCC=C(C)CCC=C(C)CCC=C(C)CCC=C(C)CCC=C(C)CCC=C(C)CCC=C(C)C)=C(C)C1=O , can you help?
Given back: 10200

src = patent US4654373A
